# credit: PubChem BioAssay (NCI)

Tested on: MALME-3M melanoma
PROTOCOL_NOTES: NCI-60 one-dose screen, 48 h
CONDITION_LABEL: 10 µM unless noted
The panel holds about 83,000 compounds, 20% with a hit somewhere; the sample as a whole holds those more often. Active and inactive are the calls of the source. The calls were made as follows: active = growth percent below 10; inactive = the rest.
Answer with one of the outcomes given here: active, inactive

Observe how each entry below is paired with its result.
O=C(CCc1nnco1)c1nc2ccc([N+](=O)[O-])cc2[nH]1; inactive
O=C(O)c1cc(N=Nc2ccc(-c3ccc(N=Nc4c(S(=O)(=O)O)cc5ccc(Nc6ccccc6)cc5c4O)cc3)cc2)ccc1O; inactive
C=C1C(=O)O[C@H]2[C@H]1CC/C(COC(=O)c1cccnc1N)=C\CC[C@@]1(C)O[C@@H]21; active

Please indicate how the test categorized C[C@@H]1C(=O)[C@@H]2C[C@@H](O)[C@@H](O)C[C@]2(C)[C@H]2CC[C@@]3(C)C(=C12)CC[C@@H]3[C@@](C)(O)[C@H](O)CCC(C)(C)O .
inactive

Please indicate how the test categorized COc1ccc(-c2cs/c(=N\N=C\c3ccc(O)cc3O)n2/N=C/c2ccc(O)cc2O)cc1 .
active
